- System: Human alphaherpesvirus 1
- method: Inhibitory concentration against TK-HSV type 1 strain B2006 in human embryonic skin muscle (ESM) fibroblast cell culture
- Format: functional
resultType: MIC

[Q] Sample Cc1cn(C2COC(CO)C(O)C2)c(=O)[nH]c1=O (stereo not drawn) — what was its MIC?
[A] > 400 µg/mL

[Q] Record: `O=c1[nH]c(=O)n([C@H]2C[C@H](O)[C@@H](CO)O2)cc1/C=C/Br`
[A] > 400 µg/mL

[Q] Please answer likewise for O=c1[nH]c(=O)n(C2COC(CO)C(O)C2)cc1I (stereo not drawn)
[A] > 200 µg/mL
